Recorded values, source patent US20210087206A1.

Target: BaF3 EML4-ALK (Homo sapiens, UniProt Q9UM73)
Construct: The EML4-ALK gene (variant 1) was synthesized at GenScript and cloned into pCDH-CMV-MCS-EF1-Puro plasmid (System Biosciences, Inc); fused on or other part: EML4 N-terminal part (variant 1: exons 1-13, with the coiled-coil that oligomerises the fusion) fused to the intracellular part of ALK, which contains the kinase domain; Q9HC35 (Echinoderm microtubule-associated protein-like 4)
Sequence (Q9UM73 whole entry, stated change not applied, the tested form may be a part): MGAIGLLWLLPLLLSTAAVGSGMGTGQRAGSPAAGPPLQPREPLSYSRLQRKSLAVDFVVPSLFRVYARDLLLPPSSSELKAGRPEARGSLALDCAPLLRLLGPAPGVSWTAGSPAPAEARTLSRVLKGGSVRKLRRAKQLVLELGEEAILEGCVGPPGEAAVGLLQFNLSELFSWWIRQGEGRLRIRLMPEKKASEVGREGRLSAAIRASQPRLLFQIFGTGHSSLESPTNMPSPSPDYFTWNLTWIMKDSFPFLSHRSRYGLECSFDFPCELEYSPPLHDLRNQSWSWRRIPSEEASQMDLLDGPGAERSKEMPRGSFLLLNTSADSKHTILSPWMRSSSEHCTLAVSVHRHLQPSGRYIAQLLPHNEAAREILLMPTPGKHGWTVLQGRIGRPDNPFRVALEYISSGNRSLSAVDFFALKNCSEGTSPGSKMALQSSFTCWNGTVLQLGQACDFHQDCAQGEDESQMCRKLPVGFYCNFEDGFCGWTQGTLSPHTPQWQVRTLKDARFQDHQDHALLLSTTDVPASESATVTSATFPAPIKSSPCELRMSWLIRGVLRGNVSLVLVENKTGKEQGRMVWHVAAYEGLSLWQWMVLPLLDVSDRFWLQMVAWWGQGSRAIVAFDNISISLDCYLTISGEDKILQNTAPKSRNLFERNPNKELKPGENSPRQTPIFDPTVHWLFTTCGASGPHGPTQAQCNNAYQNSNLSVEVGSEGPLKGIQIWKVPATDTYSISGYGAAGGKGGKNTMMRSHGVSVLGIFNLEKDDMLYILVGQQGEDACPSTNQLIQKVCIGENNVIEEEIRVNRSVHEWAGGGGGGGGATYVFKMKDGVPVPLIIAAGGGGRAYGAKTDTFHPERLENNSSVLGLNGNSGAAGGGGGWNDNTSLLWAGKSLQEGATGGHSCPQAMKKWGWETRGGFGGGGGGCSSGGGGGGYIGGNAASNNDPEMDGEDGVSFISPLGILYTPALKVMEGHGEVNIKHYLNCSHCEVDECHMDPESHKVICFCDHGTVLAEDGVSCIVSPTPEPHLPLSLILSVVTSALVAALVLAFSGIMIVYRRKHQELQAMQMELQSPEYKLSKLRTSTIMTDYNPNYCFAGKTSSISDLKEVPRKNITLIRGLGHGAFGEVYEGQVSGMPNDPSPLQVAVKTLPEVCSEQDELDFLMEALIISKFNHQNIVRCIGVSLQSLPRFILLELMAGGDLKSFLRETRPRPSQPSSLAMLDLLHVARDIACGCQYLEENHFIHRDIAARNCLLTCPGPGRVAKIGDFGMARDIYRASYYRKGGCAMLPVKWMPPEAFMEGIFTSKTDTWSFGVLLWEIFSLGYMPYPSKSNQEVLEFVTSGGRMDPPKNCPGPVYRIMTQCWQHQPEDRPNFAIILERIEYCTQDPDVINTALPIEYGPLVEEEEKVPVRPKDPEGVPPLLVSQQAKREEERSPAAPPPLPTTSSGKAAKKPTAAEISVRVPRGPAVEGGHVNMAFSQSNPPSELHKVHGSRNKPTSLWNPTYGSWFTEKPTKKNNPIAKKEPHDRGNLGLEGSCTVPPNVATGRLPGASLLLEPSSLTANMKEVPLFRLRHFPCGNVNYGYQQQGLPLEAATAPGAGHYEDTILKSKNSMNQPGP
Experiment: Cell proliferation assay (CellTiter-Glo)
Format: cell-based
Settings: anti-cell proliferation, 72 hours
test readout: IC50 (µM)

molecule	IC50, µM
C[C@@H]1COc2c(F)cc(F)cc2CN2c3nc4c(cnn4cc3OC[C@H]2C)C(=O)N1 [Compound 16]	0.0902
C[C@@H]1COc2ncc(F)cc2CN2c3nc4c(cnn4cc3OCC23CC(F)(F)C3)C(=O)N1 [Compound 63]	0.576
C[C@@H]1COc2cn3ncc4c3nc2N1Cc1cc(F)cnc1OCC1(CCC1)NC4=O [Compound 45]	0.0027
C[C@@H]1COc2cn3ncc4c3nc2N1Cc1cc(F)cnc1OCC[C@H](C)NC4=O [Compound 48]	0.0221
C[C@@H]1COc2cn3ncc4c3nc2N1Cc1cc(F)cnc1OC[C@H](O)CNC4=O [Compound 89]	1.89

(A) C[C@H]1CNC(=O)c2cnn3cc4c(nc23)N(Cc2cc(F)cnc2O1)C(C)(C)CO4 [Compound 37]
(B) C[C@@H]1COc2cn3ncc4c3nc2N(Cc2cc(F)cnc2OC[C@@H](C)NC4=O)C1 [Compound 29]
Lower IC50: A or B ? Reply briefly: the label of your chosen item. B

* * *

Biological target: BaF3 EML4-ALK (Homo sapiens)
Construct: The EML4-ALK gene (variant 1) was synthesized at GenScript and cloned into pCDH-CMV-MCS-EF1-Puro plasmid (System Biosciences, Inc); fused on or other part: EML4 N-terminal part (variant 1: exons 1-13, with the coiled-coil that oligomerises the fusion) fused to the intracellular part of ALK, which contains the kinase domain; Q9HC35 (Echinoderm microtubule-associated protein-like 4)
Assay: Cell proliferation assay (CellTiter-Glo)
Type: cell-based
Details: anti-cell proliferation, 72 hours
test readout: IC50 (nM)

compound	meas value
C[C@@H]1COc2ncc(F)cc2CN2c3nc4c(cnn4cc3OC[C@H]2CN=[N+]=[N-])C(=O)N1 [Compound 43]	85
C[C@@H]1COc2ncc(F)cc2CN2c3nc4c(cnn4cc3OCC23CCC3)C(=O)N1 [Compound 58]	203
C[C@@H]1COc2cn3ncc4c3nc2N1Cc1cc(F)cc(F)c1O[C@@H](C)CNC4=O [Compound 7]	18.6

(I) C[C@H]1CNC(=O)c2cnn3cc4c(nc23)N(Cc2cc(F)ccc2O1)[C@H](CO)CO4 [Compound 12]
(II) C[C@@H]1COc2cn3ncc4c3nc2N1Cc1cc(F)cnc1OC[C@H](F)CNC4=O [Compound 80]
Could you tell me which of I and II has the lower IC50 reading? Identify your selection by its label. II

* * *

Target: BaF3 EML4-ALK (Homo sapiens, UniProt Q9UM73)
Construct: The EML4-ALK gene (variant 1) was synthesized at GenScript and cloned into pCDH-CMV-MCS-EF1-Puro plasmid (System Biosciences, Inc); fused on or other part: EML4 N-terminal part (variant 1: exons 1-13, with the coiled-coil that oligomerises the fusion) fused to the intracellular part of ALK, which contains the kinase domain; Q9HC35 (Echinoderm microtubule-associated protein-like 4)
Test: Cell proliferation assay (CellTiter-Glo)
Format: cell-based
Conditions: anti-cell proliferation, 72 hours
Description: Cloning and Ba/F3 or NIH3T3 Stable Cell Line Creation The EML4-ALK gene (variant 1) was synthesized at GenScript and cloned into pCDH-CMV-MCS-EF1-Puro plasmid (System Biosciences, Inc). […] Two thousand cells per well were seeded in 384 well white plate for 24 hrs, and then treated with compounds for 72 hours (37° C., 5% CO2). Cell proliferation was measured using CellTiter-Glo luciferase-based ATP detection assay (Promega) following the manufactures's protocol. […]
test readout: IC50 (nM)

Worked examples, 2 compounds total:
compound smiles	unit label	meas value
C[C@@H]1COc2cn3ncc4c3nc2N(Cc2cc(F)cnc2OCCC(C)(C)NC4=O)C1	nM	2000
CC[C@@H]1COc2cn3ncc4c3nc2N1Cc1cc(F)cnc1OCC[C@H](C)NC4=O	nM	19.8

(1) C[C@@H]1COc2cn3ncc4c3nc2N(Cc2cc(F)cnc2OC[C@@H](C)CNC4=O)C1
(2) CC[C@@H]1COc2cn3ncc4c3nc2N1Cc1cc(F)cnc1OCC1(CC1)NC4=O
(3) C[C@H]1CNC(=O)c2cnn3cc4c(nc23)N(Cc2cc(F)cnc2O1)C1(CO4)CC(F)(F)C1
(4) C[C@@H]1COc2ncc(F)cc2CN2C[C@H](O)COc3cn4ncc(c4nc32)C(=O)N1
(5) CC[C@@H]1COc2cn3ncc4c3nc2N1Cc1cc(F)cnc1O[C@@H](C)CNC4=O
Reorder the items by IC50, least to greatest. Use the labels to give the ranking in the order requested. 2, 5, 3, 1, 4
